The values you see were collected from PubChem BioAssay (NCATS).

experiment: Primary qHTS to identify inhibitors of SARS-CoV-2 cell entry (AID 1645846); conditions: SARS-CoV-2 pseudovirus cell entry assay, luminescence; series mostly up to 57.1 µM; note: nearly all actives have a fitted effect of over 45% in size; note: potency is the fitted concentration of half-maximal effect
Inconclusive results are not listed. Calls of active or inactive are those of the source. Calls come from the whole dose curve.
READOUT_LABEL: Potency

> print(dat)
                                    molecule  readout.label          obs.value
 1  COc1cc(C(C)C)c(Oc2cnc(NC(CO)CO)nc2N)cc1I        Potency           inactive
 2  C[C@]12CC[C@H](O)CC1=CCC1C2CC[C@]2(C)C(n3cnc4ccccc43)=CCC12 (some centres undefined)        Potency           inactive
 3  N#Cc1cccc(-c2c[nH]c3ncnc(N4CCOCC4)c23)c1        Potency           inactive
 4  O=C1CCCC(=O)C1C(=O)c1ccc(C(F)(F)F)cc1[N+](=O)[O-]        Potency           inactive
 5  C[C@H](O)[C@@H]1C(=O)N2C(C(=O)O)=C(S[C@@H]3CN[C@H](CNS(N)(=O)=O)C3)[C@@H](C)[C@@H]12        Potency           inactive
 6  Cn1c(=O)c(Oc2ccc(F)cc2F)cc2cnc(NC3CCOCC3)nc21        Potency           inactive
 7         O=c1cc(-c2ccccc2)oc2cc(O)cc(O)c12        Potency           inactive
 8  CCS(=O)(=O)N1CCC([C@@H](C)n2c(C)c(C(=O)NCc3c(OC)cc(C)[nH]c3=O)c3ccccc32)CC1        Potency           inactive
 9  O=C1c2ccccc2-[n+]2ccc3c([nH]c4ccccc43)c21        Potency   1.26 µM (active)
10  Nc1nc2c(c(=O)[nH]1)N(C=O)[C@H](CNc1ccc(C(=O)N[C@@H](CCC(=O)O)C(=O)O)cc1)CN2        Potency           inactive
11  CC1(C)CNc2cc(NC(=O)c3cccnc3NCc3ccncc3)ccc21        Potency           inactive
12  CC1(COc2ccc3c(c2)ncn3-c2ccc3cccc(N4CCC(N)CC4)c3n2)COC1        Potency     10 µM (active)
13  Nc1ncnc2c1ncn2[C@@H]1O[C@H](CO)[C@@H](O)[C@@H]1O        Potency   28.2 µM (active)
14  C[C@](Cc1c[nH]c2ccccc12)(NC(=O)OC1C2CC3CC(C2)CC1C3)C(=O)NC[C@H](NC(=O)CCC(=O)O)c1ccccc1 (some centres undefined)        Potency           inactive
15  CCCOc1ccn2c(C(C)=O)cc(-c3ccccc3S(C)(=O)=O)c2c1        Potency           inactive
16  CCCCC(F)(F)[C@@]1(O)CC[C@H]2[C@H](CC(=O)[C@@H]2CCCCCCC(=O)O)O1        Potency           inactive
17  O=C1C[C@@H](c2ccc(O)cc2)Oc2cc(O)cc(O)c21        Potency           inactive
18  COc1cc(C(=O)N2CCC(N3CCN(C)CC3)CC2)ccc1Nc1ncc2c(n1)N(C)c1ccccc1C(=O)N2C        Potency   31.6 µM (active)
19  Nc1ccc(C(=O)Nc2cccc(-c3nc(N4CCOCC4)c4oc5ncccc5c4n3)c2)cn1        Potency  0.891 µM (active)
20  COc1ccc(C2(C#N)CCC(C(=O)O)CC2)cc1OC1CCCC1 (centres undefined)        Potency           inactive
21  Cc1ncc(OC[C@@]2(c3cccc(F)c3)C[C@H]2C(=O)Nc2ccc(F)cn2)c(C)n1        Potency           inactive
22  O=S(=O)(O)c1ccc2cc(N=Nc3cc(S(=O)(=O)O)c4cccnc4c3O)ccc2c1        Potency           inactive
23         CCCCCCCCCCCC1=C(O)C(=O)C=C(O)C1=O        Potency           inactive
24     CN(C)CCN1C(=O)c2cccc3cc(N)cc(c23)C1=O        Potency   7.08 µM (active)

###

system: Tov112D; test: Primary qHTS to identify gynecologic anti-cancer compounds using libraries of approved drugs and bioactive compounds (AID 1345084); details: Gynecologic cancer cell panel viability, ATPlite luminescence, 48 h; series mostly up to 57.5 µM; note: nearly all actives have a fitted effect of over 55% in size; note: potency is the fitted concentration of half-maximal effect
Records with an inconclusive call do not appear. Activity calls are given as the source filed them. Calls come from the whole dose curve; as a rule, active = well fitted cell-killing curve with a large enough effect; inconclusive = small, poorly fitted or top-dose-only effect, or effect the other way; inactive = flat fitted curve, though single readings scatter.
READOUT_LABEL: Potency

COMPOUND	READOUT_LABEL	OBS_VALUE
CCCN(CCC)CCc1ccc(OC)c(OCCc2ccccc2)c1	Potency	inactive
COc1ccc(CCNCc2ccc(OC)c3ccccc23)cc1	Potency	inactive
CN1C(=O)[C@]23CC4C(C)(C)[C@@]5(C[C@@]41CN2CC[C@@]3(C)O)C(=O)Nc1c5ccc2c1OC=CC(C)(C)O2 (stereo not given in full)	Potency	inactive
CCCCCn1cc(C(=O)c2cccc3ccccc23)c2ccccc21	Potency	inactive
CCC(C)/C=C(C)/C=C/C1=CC2=C(Cl)C(=O)C(C)(OC(C)=O)C(=O)C2=CO1 (stereo not given)	Potency	inactive
C=C(C)[C@@]12O[C@@H]1[C@@]1(C)C(=C[C@H]2O)CC[C@@H](O)[C@@H]1C	Potency	inactive
COC(=O)C12C(=O)C(C)(O)C(=O)C1(C)C(C)=CC1C3(C=O)CCC(OC(C)=O)C(C)(C)C3CCC12C (stereo not given)	Potency	inactive
C=C1C2(C)CC3C(C)(O)C4=CC(=O)OC(C)(C)C4=CCC3(C)C13C(=O)OC(C)C3(O)C2=O (stereo not given)	Potency	inactive
CO[C@H]1C[C@H](O[C@H]2CC[C@]3(C=O)[C@H]4CC[C@]5(C)[C@@H](C6=CC(=O)OC6)CC[C@]5(O)[C@@H]4CC[C@]3(O)C2)O[C@H](C)[C@H]1O	Potency	89.1 nM (active)
C[C@@H]1O[C@@H](O[C@H]2CC[C@@]3(C)C(CC[C@@H]4C3CC[C@]3(C)[C@@H](C5=CC(=O)OC5)CC[C@]43O)C2)[C@H](O[C@@H]2O[C@H](CO)[C@@H](O)[C@H](O)[C@H]2O)[C@H](O)[C@H]1O (stereo not given in full)	Potency	224 nM (active)

###

Property: Potency; scope: individual molecules
system: HEK293; test: Cytotoxic Profiling of Annotated Libraries Using Quantitative High-Throughput Screening (AID 1296008); conditions: Five cell lines viability, CellTiter-Glo ATP luminescence, 48-72 h; note: potency is the fitted concentration of half-maximal effect; nearly all actives have a fitted effect of over 60% in size
Records with an inconclusive call do not appear. The source made the active and inactive calls. The call rests on the fitted dose curve; in most records, active means well fitted inhibition curve with a large enough effect; inconclusive means small, poorly fitted or top-dose-only effect; inactive means flat fitted curve, though single readings scatter.

MOLECULE	TARGET_DESC	Potency
C[C@H]1O[C@@H](O[C@H]2CC[C@]3(CO)C4CC[C@]5(C)[C@@H](C6=CC(=O)OC6)CC[C@]5(O)[C@@H]4CC[C@H]3C2)[C@H](O)[C@H](O)[C@@H]1O[C@@H]1O[C@H](CO)[C@@H](O)[C@H](O)[C@H]1O (stereo partly specified)	HEK293	1.53 µM (active)
C=C(CO)C(=O)O[C@H]1CC(=C)[C@@H]2C[C@H](O)C(=C)[C@@H]2[C@H]2OC(=O)C(=C)[C@@H]21	HEK293	5.7 µM (active)
COC1C(O)C(C)OC(OC2C(CO)O[C@@H](O[C@@H]3CC4CCC5C(CC[C@]6(C)[C@@H](C7=CC(=O)OC7)CC[C@]56O)[C@@]4(C)[C@H](OC(C)=O)C3)C(O)C2O)C1O (stereo partly specified)	HEK293	2.43 µM (active)
C[C@]12CC[C@H](O)C[C@@H]1CC[C@@H]1[C@@H]2CC[C@]2(C)[C@@H](C3=CC(=O)OC3)CC[C@]12O	HEK293	5.08 µM (active)
CO[C@@H]1C[C@H](O[C@H]2CC[C@@]3(C)C(CCC4C3CC[C@]3(C)[C@@H](C5=CC(=O)OC5)[C@@H](OC(C)=O)CC43O)C2)O[C@H](C)[C@@H]1O[C@H]1O[C@H](CO[C@@H]2O[C@H](CO)[C@@H](O)[C@H](O)[C@H]2O)[C@@H](O)[C@H](O)[C@H]1O (stereo partly specified)	HEK293	0.873 µM (active)
C[C@H]1CN(Cc2ccc(CC(=O)N3CCC(Nc4cccc(F)c4)CC3)cc2)CCN1	HEK293	18.4 µM (active)

###

Property: activity change, negative = inhibition; scope: individual molecules
experiment: Primary qHTS to identify inhibitors of SARS-CoV-2 cell entry (AID 1645846); details: SARS-CoV-2 pseudovirus cell entry assay, luminescence; at 57.1 µM (top of the series) unless noted; note: nearly all actives have a fitted effect of over 45% in size
Records with an inconclusive call do not appear.
READOUT_LABEL: activity change, negative = inhibition (%)

> print(dat)
                                        smi                           readout.label  obs.value
1  CCCCC(C)(C)[C@H](O)C=C[C@H]1[C@H](O)CC(=O)[C@H]1CC=CCCCC(=O)O  activity change, negative = inhibition      -55.7
2  Cc1onc(-c2ccccc2)c1C(=O)N[C@@H]1C(=O)N2[C@@H]1SC(C)(C)[C@@H]2C(=O)O  activity change, negative = inhibition      -25.7
3  COc1cc2nccc(Oc3ccc(NC(=O)NC4CC4)c(Cl)c3)c2cc1C(N)=O  activity change, negative = inhibition      -21.3
